# IC50 listing for each entry below
Biological target: SF9 affinity purified rat farnesyl protein transferase (Rattus norvegicus, UniProt Q02293+Q04631)
Construct: made in house; host or cells: Sf9 insect cells (baculovirus system inferred from b7)
Assay: PFT inhibitory activity (radiolabeled farnesyl pyrophosphate, streptavidin bead assay)
Assay type: biochemical
Details: HEPES buffer pH 7.4, without 5 mM potassium phosphate; read-out: IC50 (μM) Hepes

| MOLECULE | IC50 / µM |
| --- | --- |
| CN(Cc1ccccc1)C(=O)N[C@@H](Cc1c[nH]cn1)C(=O)N(CC(=O)NCC(C)(C)c1ccccc1)Cc1ccc(Cl)cc1 | 0.029 |
| CC(CNC(=O)CN(Cc1ccc(OCc2ccccc2)cc1)C(=O)[C@H](Cc1c[nH]cn1)NC(=O)OCc1ccccc1)c1ccccc1Cl (stereo partly drawn) | 0.32 |
| CC(CNC(=O)CN(Cc1ccc(OCc2ccccc2)cc1)C(=O)[C@H](Cc1c[nH]cn1)NC(=O)OCc1ccccc1)c1ccccc1 (stereo partly drawn) | 5.8 |

The values you see were collected from patent US6300501A.
